This collection of values is drawn from ChEMBL document CHEMBL1137618.

- tgt: Neuronal acetylcholine receptor; alpha3/beta4 (Homo sapiens, UniProt P30926+P32297)
- Sequence (P30926 whole entry): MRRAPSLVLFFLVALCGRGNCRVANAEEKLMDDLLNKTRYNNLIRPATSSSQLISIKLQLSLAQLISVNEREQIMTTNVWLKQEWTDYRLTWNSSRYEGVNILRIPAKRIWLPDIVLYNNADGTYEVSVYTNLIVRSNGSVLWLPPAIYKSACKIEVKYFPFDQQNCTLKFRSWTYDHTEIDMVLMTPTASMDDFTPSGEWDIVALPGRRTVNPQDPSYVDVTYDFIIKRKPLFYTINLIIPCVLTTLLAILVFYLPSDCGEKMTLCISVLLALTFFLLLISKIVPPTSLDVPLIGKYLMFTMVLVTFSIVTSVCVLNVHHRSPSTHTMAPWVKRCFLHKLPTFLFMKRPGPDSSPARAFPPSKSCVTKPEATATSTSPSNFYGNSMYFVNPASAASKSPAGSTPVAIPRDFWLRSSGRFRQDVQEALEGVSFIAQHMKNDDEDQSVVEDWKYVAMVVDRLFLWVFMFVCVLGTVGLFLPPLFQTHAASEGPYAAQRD
- Sequence (P32297 whole entry): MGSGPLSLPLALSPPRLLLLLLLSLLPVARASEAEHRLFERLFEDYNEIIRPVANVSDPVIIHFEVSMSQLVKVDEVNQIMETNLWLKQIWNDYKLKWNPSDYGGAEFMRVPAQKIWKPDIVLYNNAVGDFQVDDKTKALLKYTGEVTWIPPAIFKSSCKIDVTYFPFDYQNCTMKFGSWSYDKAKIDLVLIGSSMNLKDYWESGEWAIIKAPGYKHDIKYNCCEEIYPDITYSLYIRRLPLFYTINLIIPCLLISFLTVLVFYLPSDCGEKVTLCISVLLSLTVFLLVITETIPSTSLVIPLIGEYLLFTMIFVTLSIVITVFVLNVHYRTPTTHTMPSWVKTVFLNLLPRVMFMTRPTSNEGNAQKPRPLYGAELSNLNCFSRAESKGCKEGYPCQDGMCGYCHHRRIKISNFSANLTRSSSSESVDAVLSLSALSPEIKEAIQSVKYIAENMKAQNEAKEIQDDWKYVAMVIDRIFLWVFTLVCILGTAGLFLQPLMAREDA
- assay.method.text: Agonist activity at recombinant human alpha-3-beta-4 nAChR expressed in HEK293 cells assessed as induction of calcium influx by FLIPR assay
- Assay type: functional, cell-based
- condition.set: read-out: EC50
Below, each entry is listed with its recorded pEC50.
Just the number, please; pEC50 means minus log10 of the concentration in mol/L.

[[record]]
compound = "C#Cc1cncc(N2C[C@@H]3CNC[C@@H]32)c1"
reported_measurement = 4.48

[[record]]
compound = "Clc1cncc(N2C[C@@H]3CN[C@@H]3C2)c1"
reported_measurement = 4.60

[[record]]
compound = "Brc1cc(N2C[C@@H]3CN[C@@H]3C2)cnc1Br"
reported_measurement = 5.89

[[record]]
compound = "COc1cncc(N2C[C@H]3CNC[C@H]32)c1"
reported_measurement = 4.59

[[record]]
compound = "N#Cc1cc(N2C[C@@H]3CN[C@@H]3C2)cnc1Br"
reported_measurement = 6.22


Entry under review: Cc1cc(N2C[C@H]3CNC[C@H]32)cnc1Cl . Reported pEC50?
6.22

###

- tgt: Neuronal acetylcholine receptor; alpha4/beta2 (Homo sapiens, UniProt P17787+P43681)
- assay.method.text: Agonist activity at recombinant human alpha-4-beta-2 nAChR expressed in HEK293 cells assessed as induction of calcium influx by FLIPR assay relative to nicotine
- Assay type: functional, cell-based
# Activity per record follows
The reply should be a number in %, with the unit left off.

The cases that follow already have their Activity on record.
[[record]]
smiles_representation = "Cc1cc(N2C[C@@H]3CNC[C@@H]32)cnc1C"
unit_info = "%"
reported_measurement = 83

[[record]]
smiles_representation = "Clc1ccc(N2C[C@H]3CNC[C@H]32)cn1"
unit_info = "%"
reported_measurement = 127

[[record]]
smiles_representation = "Cc1ncc(N2C[C@H]3CN[C@H]3C2)cc1C#N"
unit_info = "%"
reported_measurement = 136

[[record]]
smiles_representation = "N#Cc1cc(N2C[C@H]3CNC[C@H]32)c[n+]([O-])c1"
unit_info = "%"
reported_measurement = 69

[[record]]
smiles_representation = "Brc1cc(N2C[C@@H]3CN[C@@H]3C2)cnc1Br"
unit_info = "%"
reported_measurement = 122


So what does the record say about Activity for Brc1cncc(N2C[C@H]3CN[C@H]3C2)c1 ?
161

Here is the next compound: C#Cc1cncc(N2C[C@@H]3CNC[C@@H]32)c1
45

Repeat for the following compound: COc1cncc(N2C[C@@H]3CNC[C@@H]32)c1
43

Consider next the compound COc1cc(N2C[C@H]3CN[C@H]3C2)cnc1Br in the same way.
159

What do you have for Cc1cc(N2C[C@@H]3CN[C@@H]3C2)cnc1C ?
76

Same question for Cc1cc(N2C[C@@H]3CN[C@@H]3C2)cnc1Cl please.
134

Also need Brc1cncc(N2C[C@H]3CNC[C@H]32)c1 , thanks.
31

Next up: Brc1cc(N2C[C@H]3CNC[C@H]32)cnc1Br
131

###

- tgt: Neuronal acetylcholine receptor; alpha3/beta4 (Homo sapiens, UniProt P30926+P32297)
- assay.method.text: Agonist activity at recombinant human alpha3beta4 nAChR expressed in HEK293 cells assessed as induction of calcium influx by FLIPR assay relative to nicotine
- Type: functional, cell-based
# if value of Activity reaches 70%, tag Satisfied; if it stays below, tag Not satisfied

[[record]]
smiles_representation = "N#Cc1cc(N2C[C@@H]3CN[C@@H]3C2)cnc1Br"
tgt = "Neuronal acetylcholine receptor; alpha3/beta4 (Homo sapiens, UniProt P30926+P32297)"
category = "Satisfied"

[[record]]
smiles_representation = "COc1cc(N2C[C@H]3CN[C@H]3C2)cnc1Br"
tgt = "Neuronal acetylcholine receptor; alpha3/beta4 (Homo sapiens, UniProt P30926+P32297)"
category = "Satisfied"

[[record]]
smiles_representation = "Clc1ccc(N2C[C@@H]3CN[C@@H]3C2)cn1"
tgt = "Neuronal acetylcholine receptor; alpha3/beta4 (Homo sapiens, UniProt P30926+P32297)"
category = "Satisfied"

[[record]]
smiles_representation = "c1coc(-c2cncc(N3C[C@H]4CNC[C@H]43)c2)n1"
tgt = "Neuronal acetylcholine receptor; alpha3/beta4 (Homo sapiens, UniProt P30926+P32297)"
category = "Not satisfied"

[[record]]
smiles_representation = "COc1cncc(N2C[C@@H]3CNC[C@@H]32)c1"
tgt = "Neuronal acetylcholine receptor; alpha3/beta4 (Homo sapiens, UniProt P30926+P32297)"
category = "Not satisfied"


Determine whether this compound has Activity no lower than 70%: COc1cncc(N2C[C@H]3CN[C@H]3C2)c1
Satisfied

# iterate: C#Cc1cncc(N2C[C@@H]3CNC[C@@H]32)c1
Not satisfied

Consider next the compound Clc1ccc(N2C[C@H]3CNC[C@H]32)cn1 in the same way.
Satisfied

Then Cc1cc(N2C[C@H]3CNC[C@H]32)cnc1C ?
Satisfied
